# tested.target: T1, factor H binding protein (fHbp) variant 2.16 (Neisseria meningitidis 961-5945, UniProt Q6VS19, strain)
# T1 construct: also called fHbp v2.16; fHbp v2; source: E. coli BL21(DE3), purified (Ni-NTA; SEC when necessary)
# test.description: SPR
# conditions: both partners purified
Listed below: koff values for each entry.
property.label: koff (s⁻¹)

[[record]]
binder = "human anti-fHbp mAb 3B7 (antibody, V domains shown, source: Expi293, transient transfection, purified (protein G Sepharose)) VH: EVQLVQSGAEVKKPGSSVKVSCKASGDTFSNYPISWVRQAPGQGLEWMGGIIPIFGTANYAQKFQGRVTITADESTSTPYMELSSLRSEDTAVYYCARGDTAMAPFDYWGQGTLVTVSS VL: SYVLTQPPSVSVAPGKTARITCGGNSIGSKSVHWYQQKPGQAPVLVIYYDSDRPSGVPERISGSNSGNTATLTISRVEAGDEADYYCQVWDSSSDSWVFGGGTKLTVL"
property_label = "koff"
value_unit = "s⁻¹"
measured_value = "7.13e-06"

[[record]]
binder = "human anti-fHbp mAb 5F12 (antibody, V domains shown, source: Expi293, transient transfection, purified (protein G Sepharose)) VH: EVQLVESGGDLVKPGGSLRLSCAASGFTFSNYTMNWVRQAPGKGLEWVSSITSSSSFKYYADSVKGRFTISRDNAKNSVFLQMNSLRAEDTAIYYCARRIDSSDQDWFYYYGMDVWGLGTTVTVSS VL: QSVLTQPPSVSAAPGQRVTISCSGSSSNIGDNYISWYQQLPGTAPKLLIYDNDQRPSGTPDRFSASKSGTSATLGVTGLQTGDEADYYCGTWDSSLNAPVFGSGTKVTVL"
property_label = "koff"
value_unit = "s⁻¹"
measured_value = 0.00188

[[record]]
binder = "human anti-fHbp mAb 2G1 (antibody, V domains shown, source: Expi293, transient transfection, purified (protein G Sepharose)) VH: QVQLVESGGDLVKPGGSLRLSCVASGFTFSSYTMNWVRQAPGKGLEWVSSITSSSSFTYYADSVKGRFIISRDNAKNSLSLQMNNLRVEDTATYYCARRKDSSDYDWYYYYGMDVWGLGTTVTVSS VL: QSVLTQPPSVSAAPGQKVTISCSGSSSNIGDNYMSWYQQIPGTAPKLLIFDNDQRPSGIPDRFSASKSGTSATLDITGFQTGDEADYYCGTWDSGLSAPVFGGGTKLTVL"
property_label = "koff"
value_unit = "s⁻¹"
measured_value = 0.00045

[[record]]
binder = "human anti-fHbp mAb 2C8 (antibody, V domains shown, source: Expi293, transient transfection, purified (protein G Sepharose)) VH: QVQLVQSGAEVKKPGSSVKVSCKASGGTVINYPISWVRQVPGQGLEWMGRLVPLFGTPNYGQKFQGRITITADKSTSAAYMELIGLKSEDTAVYYCARGDTAMAPFDYWGHGTLVTVSS VL: QLVLTQPPSVSVAPGKTATITCGGNNVGGKTVHWYQQKPGQAPVLVMSYDSDRPSGIPERFSGSNSGNTATLTISRVEAEDEADYYCQVWHGNDDHWVFGGGTKLTVL"
property_label = "koff"
value_unit = "s⁻¹"
measured_value = 0.000689

